TARGET: PI3K p110α/p85 (Homo sapiens, UniProt P42336)
Sequence (P42336 whole entry): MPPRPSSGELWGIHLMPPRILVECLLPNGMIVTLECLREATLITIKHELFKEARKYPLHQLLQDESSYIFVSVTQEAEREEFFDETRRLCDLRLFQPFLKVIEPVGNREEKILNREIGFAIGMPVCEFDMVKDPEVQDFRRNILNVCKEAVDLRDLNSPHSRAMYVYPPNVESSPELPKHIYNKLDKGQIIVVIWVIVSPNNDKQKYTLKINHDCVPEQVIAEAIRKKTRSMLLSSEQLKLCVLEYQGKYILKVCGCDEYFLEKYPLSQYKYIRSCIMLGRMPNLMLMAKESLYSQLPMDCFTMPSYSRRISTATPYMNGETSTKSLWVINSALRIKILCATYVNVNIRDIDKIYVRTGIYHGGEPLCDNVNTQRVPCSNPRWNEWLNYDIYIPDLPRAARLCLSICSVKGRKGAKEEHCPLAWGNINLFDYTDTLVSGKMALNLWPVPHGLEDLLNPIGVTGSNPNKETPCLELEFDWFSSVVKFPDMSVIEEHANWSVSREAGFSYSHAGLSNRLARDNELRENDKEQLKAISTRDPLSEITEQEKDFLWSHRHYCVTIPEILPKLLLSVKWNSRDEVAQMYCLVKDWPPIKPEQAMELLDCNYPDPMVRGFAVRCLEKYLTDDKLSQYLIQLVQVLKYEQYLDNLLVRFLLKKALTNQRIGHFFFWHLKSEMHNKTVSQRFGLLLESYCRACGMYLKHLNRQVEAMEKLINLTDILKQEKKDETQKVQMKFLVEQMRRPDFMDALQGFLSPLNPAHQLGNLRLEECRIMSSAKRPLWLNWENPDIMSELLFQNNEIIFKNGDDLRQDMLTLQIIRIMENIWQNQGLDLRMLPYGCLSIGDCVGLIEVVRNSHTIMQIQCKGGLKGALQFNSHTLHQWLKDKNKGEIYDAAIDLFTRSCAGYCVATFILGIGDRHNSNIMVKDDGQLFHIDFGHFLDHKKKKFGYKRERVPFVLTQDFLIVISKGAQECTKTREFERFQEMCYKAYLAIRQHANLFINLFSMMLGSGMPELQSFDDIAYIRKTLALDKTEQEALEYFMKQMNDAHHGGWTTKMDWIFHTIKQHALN
Sequence (P27986 whole entry partner): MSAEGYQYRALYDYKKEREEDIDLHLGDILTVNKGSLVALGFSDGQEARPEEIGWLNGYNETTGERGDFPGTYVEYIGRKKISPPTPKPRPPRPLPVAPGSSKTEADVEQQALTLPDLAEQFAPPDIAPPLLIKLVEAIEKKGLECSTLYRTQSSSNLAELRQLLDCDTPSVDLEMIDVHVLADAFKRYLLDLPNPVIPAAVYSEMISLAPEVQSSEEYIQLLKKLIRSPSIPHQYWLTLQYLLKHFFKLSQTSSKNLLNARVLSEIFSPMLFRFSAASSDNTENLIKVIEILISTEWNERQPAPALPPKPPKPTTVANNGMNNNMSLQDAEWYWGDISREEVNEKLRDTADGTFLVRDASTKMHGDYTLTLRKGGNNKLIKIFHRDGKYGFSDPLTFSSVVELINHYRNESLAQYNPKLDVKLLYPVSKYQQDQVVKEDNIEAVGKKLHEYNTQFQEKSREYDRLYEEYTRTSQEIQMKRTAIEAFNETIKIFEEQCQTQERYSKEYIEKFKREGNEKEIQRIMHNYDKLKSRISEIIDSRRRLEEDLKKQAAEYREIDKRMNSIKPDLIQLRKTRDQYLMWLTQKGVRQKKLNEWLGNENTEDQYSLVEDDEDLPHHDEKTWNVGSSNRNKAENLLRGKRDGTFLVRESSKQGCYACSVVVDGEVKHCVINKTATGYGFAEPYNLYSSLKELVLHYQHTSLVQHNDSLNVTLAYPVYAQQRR
EXPERIMENTAL PROTOCOL: PI3K assay ([γ33P]ATP, PtdIns/PtdSer coated plates)
EXPERIMENTAL CONDITIONS: 2 μM ATP, 1 hour at RT; read-out: IC50 (PI3Kα)
In this section we review reported IC50 values for a set of compounds.

Consider the worked cases shown below.
> print(dat)
                                   compound         observed
1  CC(C)Cn1cnc2c(-c3cccc(O)c3)nc(N3CCOCC3)nc21 [Compound 60]        < 1000 nM
2  N#CCn1cnc2c(-c3cccc(O)c3)nc(N3CCOCC3)nc21 [Compound 35]        < 1000 nM
3  c1ccc(Cn2cnc3c(-c4ccc5nn[nH]c5c4)nc(N4CCOCC4)nc32)cc1 [Compound 39]  1000 to 5000 nM
4  CCC(C)n1c(SC)nc2c(-c3cccc(O)c3)nc(N3CCOCC3)nc21 (stereo not shown) [Compound 124]        < 1000 nM
5  Oc1cccc(-c2nc(N3CCOCC3)nc3[nH]c(-c4cccs4)nc23)c1 [Compound 117]        < 1000 nM
6  CCC(C)n1c(Cl)nc2c(-c3cccc(O)c3)nc(N3CCOCC3)nc21 (stereo not shown) [Compound 129]        < 1000 nM
7  c1ccc(Cn2cnc3c(-c4ccc5cc[nH]c5c4)nc(N4CCOCC4)nc32)cc1 [Compound 6]        > 5000 nM
8  C#CCn1cnc2c(-c3cccc(O)c3)nc(N3CCOCC3)nc21 [Compound 53]        < 1000 nM

Now consider the entry below.
Exam item: Consider the compound shown here: CCC(C#N)n1cnc2c(-c3cccc4[nH]ccc34)nc(N3CCOCC3)nc21 (stereo not shown) [Compound 102] What is its recorded IC50?
Marked response: < 1000 nM
